List of Efficacy values.
Molecular target: Cannabinoid receptor 2 (Homo sapiens, UniProt P34972)
Sequence (P34972 whole entry): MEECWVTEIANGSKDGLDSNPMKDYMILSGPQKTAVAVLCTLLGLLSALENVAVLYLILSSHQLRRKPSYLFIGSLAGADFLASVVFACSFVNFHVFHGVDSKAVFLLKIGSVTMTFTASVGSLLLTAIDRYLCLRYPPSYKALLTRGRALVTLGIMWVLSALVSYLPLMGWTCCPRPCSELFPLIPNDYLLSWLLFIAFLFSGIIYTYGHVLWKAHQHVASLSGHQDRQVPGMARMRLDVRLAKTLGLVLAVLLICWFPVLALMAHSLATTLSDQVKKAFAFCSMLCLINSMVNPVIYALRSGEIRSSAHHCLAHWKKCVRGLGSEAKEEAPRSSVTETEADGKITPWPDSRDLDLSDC
Experiment: Inverse agonist activity at CB2 receptor (unknown origin) expressed in HEK cells assessed as increase in cAMP production at 5 x 10^-6 to 5 x 10^-10 M measured at 50 mins by ACTOne dye-based fluorescence assay in presence of forskolin and Ro 20-1724 relative to control
Format: functional, cell-based
Settings: HEK293
valueKind: Efficacy

>  <compound>
O=C(c1ccc(C(F)(F)F)cc1)c1cc(O)c(-c2cc(Cl)cc(Cl)c2)c(O)c1

>  <measured>
49.7%

$$$$
>  <compound>
COc1cc(C(=O)c2ccc(C)cc2)cc(O)c1-c1cc(Cl)cc(Cl)c1

>  <measured>
129%

$$$$
>  <compound>
CCc1ccc(C(=O)c2cc(O)c(-c3cc(Cl)cc(Cl)c3)c(O)c2)cc1

>  <measured>
52.2%

$$$$
>  <compound>
CCCc1ccc(C(=O)c2cc(O)c(-c3cc(Cl)cc(Cl)c3)c(O)c2)cc1

>  <measured>
50%

$$$$
>  <compound>
CCCCc1ccc(C(=O)c2cc(O)c(-c3cc(Cl)cc(Cl)c3)c(OC)c2)cc1

>  <measured>
108%

$$$$
>  <compound>
Cc1ccc(C(=O)c2cc(O)c(-c3cc(Cl)cc(Cl)c3)c(O)c2)cc1

>  <measured>
230%

$$$$
>  <compound>
COc1cc(C(=O)c2ccc(Cl)cc2)cc(O)c1-c1cc(Cl)cc(Cl)c1

>  <measured>
97.5%

$$$$
>  <compound>
Cc1ccc(Cn2nc(C(=O)NC3C4(C)CCC(C4)C3(C)C)cc2-c2ccc(Cl)c(C)c2)cc1 (stereo not given) [SR-144528]

>  <measured>
80.8%

$$$$
>  <compound>
CCc1cccc(C(=O)c2cc(O)c(-c3cc(Cl)cc(Cl)c3)c(O)c2)c1

>  <measured>
184%

$$$$

----------
Target: UniProtKB P34972
Test: Inverse agonist activity at CB2 receptor (unknown origin) expressed in HEK cells assessed as increase in cAMP production measured at 50 mins by ACTOne dye-based fluorescence assay in presence of forskolin and Ro 20-1724
Format: functional, cell-based, HEK293
Conditions: read-out: EC50
Reported EC50 values for a set of compounds

>  <compoundString>
CCCc1ccc(C(=O)c2cc(O)c(-c3cc(Cl)cc(Cl)c3)c(O)c2)cc1

>  <EC50>
0.0288 µM

$$$$
>  <compoundString>
CC(C)c1ccc(C(=O)c2cc(O)c(-c3cc(Cl)cc(Cl)c3)c(O)c2)cc1

>  <EC50>
0.182 µM

$$$$
>  <compoundString>
COc1cc(C(=O)c2ccc(C)cc2)cc(O)c1-c1cc(Cl)cc(Cl)c1

>  <EC50>
> 5 µM

$$$$
>  <compoundString>
CCCCc1ccc(C(=O)c2cc(O)c(-c3cc(Cl)cc(Cl)c3)c(O)c2)cc1

>  <EC50>
0.254 µM

$$$$
>  <compoundString>
O=C(c1cc(O)c(-c2cc(Cl)cc(Cl)c2)c(O)c1)C1CCCCC1

>  <EC50>
2.54 µM

$$$$
>  <compoundString>
O=C(c1ccc(C(F)(F)F)cc1)c1cc(O)c(-c2cc(Cl)cc(Cl)c2)c(O)c1

>  <EC50>
> 5 µM

$$$$
>  <compoundString>
COc1cc(C(=O)c2ccc(Cl)cc2)cc(O)c1-c1cc(Cl)cc(Cl)c1

>  <EC50>
> 5 µM

$$$$
>  <compoundString>
CCc1cccc(C(=O)c2cc(O)c(-c3cc(Cl)cc(Cl)c3)c(O)c2)c1

>  <EC50>
> 5 µM

$$$$
>  <compoundString>
O=C(c1ccc(O)cc1)c1cc(O)c(-c2cc(Cl)cc(Cl)c2)c(O)c1

>  <EC50>
> 5 µM

$$$$
>  <compoundString>
CCCCc1ccc(C(=O)c2cc(O)c(-c3cc(Cl)cc(Cl)c3)c(OC)c2)cc1

>  <EC50>
> 5 µM

$$$$
>  <compoundString>
CC(C)(C)c1ccc(C(=O)c2cc(O)c(-c3cc(Cl)cc(Cl)c3)c(O)c2)cc1

>  <EC50>
3.97 µM

$$$$
